Source listed as PubChem BioAssay (NCATS).

Tested on: CP260
Measurement description: qHTS profiling for inhibitors of Plasmodium falciparum proliferation (AID 504749); further: nearly all actives have a fitted effect of over 60% in size
Measurement parameters: P. falciparum in erythrocytes, SYBR Green DNA, 72 h; series mostly up to 28.7 µM
Results filed as inconclusive are left out. The source made the active and inactive calls. The call rests on the fitted dose curve; in most records, active means well fitted inhibition curve with a large enough effect; inconclusive means small, poorly fitted or top-dose-only effect; inactive means flat fitted curve, though single readings scatter.
Endpoint label: outcome

// known answers, use as guide
C[C@]12C=CC(=O)C=C1CC[C@@H]1[C@@H]2C(=O)C[C@@]2(C)[C@H]1CC[C@]2(O)C(=O)CO; inactive
O=C(O)c1cc(=O)[nH]c(=O)[nH]1; inactive
COC(=O)Nc1nc2ccc(C(=O)c3ccccc3)cc2[nH]1; inactive
COc1ccc(-c2ccc3cc(C(=O)O)ccc3c2)cc1C12CC3CC(CC(C3)C1)C2; inactive

Prompt: Determine reported outcome for CNC1CCCN(c2c(F)cc3c(=O)c(C(=O)O)cn(C4CC4)c3c2OC)C1 (stereo not given) ; test system: CP260.
Completion: inactive

###

Tested on: CP191
Measurement description: qHTS profiling for inhibitors of Plasmodium falciparum proliferation (AID 504749); further: nearly all actives have a fitted effect of over 60% in size
Measurement parameters: P. falciparum in erythrocytes, SYBR Green DNA, 72 h; series mostly up to 28.7 µM
Results filed as inconclusive are left out. The source made the active and inactive calls. Calls come from the whole dose curve; as a rule, active = well fitted inhibition curve with a large enough effect; inconclusive = small, poorly fitted or top-dose-only effect; inactive = flat fitted curve, though single readings scatter.
I would appreciate it if you answered using one of these outcomes: active, inactive

COc1cnc(NS(=O)(=O)c2ccc(N)cc2)nc1; inactive
CC(N)C12CC3CC(CC(C3)C1)C2 (stereo not given); inactive
COc1ncnc(NS(=O)(=O)c2ccc(N)cc2)c1OC; inactive
Cc1cccc(Nc2ccncc2S(=O)(=O)NC(=O)NC(C)C)c1; inactive
Cc1cccc(N(C)C(=S)Oc2ccc3ccccc3c2)c1; inactive

Prompt: What did the test return for CC(C)(C#N)c1cc(Cn2cncn2)cc(C(C)(C)C#N)c1 ?
Completion: inactive

Prompt: What did the test return for COc1cc2c(Nc3ccc(Br)cc3F)ncnc2cc1OCC1CCN(C)CC1 ?
Completion: active

Prompt: What did the test return for CC[C@H](C)C(=O)O[C@H]1C[C@@H](C)C=C2C=C[C@H](C)[C@H](CC[C@@H]3C[C@@H](O)CC(=O)O3)[C@H]21 ?
Completion: inactive

Prompt: What did the test return for OC(Cn1cncn1)(Cn1cncn1)c1ccc(F)cc1F ?
Completion: inactive

Prompt: What did the test return for CN1CCN(c2c(F)cc3c(=O)c(C(=O)O)cn(CCF)c3c2F)CC1 ?
Completion: inactive

###

Measurement description: Primary qHTS for inhibitors of nuclear receptor binding SET domain protein 2 (NSD2) in an RCH-ACV wild type WT cells (2C) (AID 1645877); further: nearly all actives have a fitted effect of over 70% in size
Measurement parameters: RCH-ACV (leukaemia line) NSD2 WT (2C) viability, CellTiter-Glo, 72 h; series mostly up to 44.9 µM
Inconclusive results are not listed. Activity calls are given as the source filed them. The call rests on the fitted dose curve; in most records, active means well fitted inhibition curve with a large enough effect; inconclusive means small, poorly fitted or top-dose-only effect; inactive means no such curve, though single readings can be large or run the other way.
Endpoint label: outcome

CC(=O)Oc1ccccc1C(=O)Nc1ncc([N+](=O)[O-])s1; inactive
CNS(=O)(=O)CCc1ccc2[nH]cc(C3CCN(C)CC3)c2c1; inactive
CCCCS(=N)(=O)CCC(N)C(=O)O (stereo not drawn); inactive

###

Measurement description: Cellular Toxicity (caspase-3) Mesangial (AID 660);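 further: combined caspase 3 and 7 activity read by Caspase-Glo luminescence; cells exposed to compound for 16 h before the caspase read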
Measurement parameters: mesangial cells; caspase-3 activation; series mostly up to 91.7 µM
Active and inactive are the calls of the source. The call rests on the fitted dose curve; in most records, active means well fitted activation curve with a large enough effect; inconclusive means small, poorly fitted or top-dose-only effect; inactive means flat fitted curve, though single readings scatter.
I would appreciate it if you answered using one of these outcomes: active, inactive

The following molecules have reported results that may help.
CC[C@H](C)C(=O)O[C@H]1C[C@@H](C)C=C2C=C[C@H](C)[C@H](CC[C@@H]3C[C@@H](O)CC(=O)O3)[C@H]21; inactive
Cc1nnc(NS(=O)(=O)c2ccc(N)cc2)s1; inactive
COc1ccc2cc3[n+](cc2c1OC)CCc1cc2c(cc1-3)OCO2; inactive

Prompt: What did the test return for CN(C)c1ccc(C(=C2C=CC(=[N+](C)C)C=C2)c2ccc(N(C)C)cc2)cc1 ?
Completion: active

Prompt: What did the test return for Cc1cc(NS(=O)(=O)c2ccc(N)cc2)no1 ?
Completion: inactive

###

Measurement description: qHTS Screen of the MIPE 4.0 Collection Against Ewings Sarcoma (RDES) (AID 1259252); further: nearly all actives have a fitted effect of over 35% in size
Measurement parameters: RD-ES Ewing sarcoma viability, CellTiter-Glo, 48 h; series mostly up to 45.8 µM
Records with an inconclusive call do not appear. Active and inactive are the calls of the source. Calls come from the whole dose curve; as a rule, active = well fitted inhibition curve with a large enough effect; inconclusive = small, poorly fitted or top-dose-only effect; inactive = no such curve, though single readings can be large or run the other way.
I would appreciate it if you answered using one of these outcomes: 1 (active), -1 (inactive)

The following molecules have reported results that may help.
CC[C@H](NC(C)C)[C@H](O)c1ccc(O)c2[nH]c(=O)ccc12; -1
O=C(O)CCn1c2c(c3ccccc31)C[C@H](NS(=O)(=O)c1ccc(F)cc1)CC2; -1
COc1cc2nc(N3CCCN(C)CC3)nc(NC3CCN(Cc4ccccc4)CC3)c2cc1OC; 1
C[C@]12C=CC(=O)C=C1CC[C@@H]1[C@@H]2C(=O)C[C@@]2(C)[C@H]1CC[C@]2(O)C(=O)CO; -1

Prompt: What did the test return for CCC(=O)O[C@]1(C(=O)SCF)[C@H](C)C[C@H]2[C@@H]3C[C@H](F)C4=CC(=O)C=C[C@]4(C)[C@@]3(F)[C@@H](O)C[C@@]21C ?
Completion: 1

Prompt: What did the test return for CNS(=O)(=O)Cc1ccc2[nH]cc(CCN(C)C)c2c1 ?
Completion: -1

###

Tested on: CP315
Measurement description: qHTS profiling for inhibitors of Plasmodium falciparum proliferation (AID 504749); further: nearly all actives have a fitted effect of over 60% in size
Measurement parameters: P. falciparum in erythrocytes, SYBR Green DNA, 72 h; series mostly up to 28.7 µM
Inconclusive results are not listed. Activity calls are given as the source filed them. Calls come from the whole dose curve; as a rule, active = well fitted inhibition curve with a large enough effect; inconclusive = small, poorly fitted or top-dose-only effect; inactive = flat fitted curve, though single readings scatter.
I would appreciate it if you answered using one of these outcomes: active, inactive

The following compounds have reported results that may help.
COc1ccc2cc3[n+](cc2c1OC)CCc1cc2c(cc1-3)OCO2; active
O=c1cc(O)c(Cl)c[nH]1; inactive
NC(N)=NC(N)=NCCc1ccccc1; inactive
N=C(N)c1ccc(OCCCCCOc2ccc(C(=N)N)cc2)cc1; active
CN(C)c1ccc(C(=C2C=CC(=[N+](C)C)C=C2)c2ccc(N(C)C)cc2)cc1; active

Here is another compound to look at.
Prompt: What did the test return for CN1CCN(c2c(F)cc3c(=O)c(C(=O)O)cn(CCF)c3c2F)CC1 ?
Completion: inactive

###

Measurement description: Quantitative High-Throughput drug screen in 47 multiple myeloma cell lines against the NCATS MIPE library collection: NCIH929_DSMZ cell viability assay (AID 1918978); further: nearly all actives have a fitted effect of over 35% in size
Measurement parameters: NCI-H929 myeloma viability, CellTiter-Glo ATP, 48 h; series mostly up to 45.8 µM
Inconclusive results are not listed. Calls of active or inactive are those of the source. Calls come from the whole dose curve; as a rule, active = well fitted cell-killing curve with a large enough effect; inconclusive = small, poorly fitted or top-dose-only effect; inactive = no such curve, though single readings can be large or run the other way.
I would appreciate it if you answered using one of these outcomes: True for active, False for inactive

Nc1nc(N)nc(-c2cc(Cl)ccc2Cl)n1; False

Prompt: What did the test return for CO[C@@]12[C@H](COC(N)=O)C3=C(C(=O)C(C)=C(N)C3=O)N1C[C@@H]1N[C@@H]12 ?
Completion: True

Prompt: What did the test return for CC1(C)[C@H](C(=O)O)N2C(=O)C[C@H]2S1(=O)=O ?
Completion: False

Prompt: What did the test return for Cc1ncc([N+](=O)[O-])n1CCO ?
Completion: False

Prompt: What did the test return for Cc1cccc(N(C)C(=S)Oc2ccc3ccccc3c2)c1 ?
Completion: False

###

Measurement description: Quantitative High-Throughput drug screen in 47 multiple myeloma cell lines against the NCATS MIPE library collection: KMS26_JCRB cell viability assay (AID 1918975); further: nearly all actives have a fitted effect of over 45% in size
Measurement parameters: KMS26 myeloma cells viability, CellTiter-Glo ATP, 48 h; series mostly up to 45.8 µM
Inconclusive results are not listed. The source made the active and inactive calls. Calls follow the shape of the dose curve; as a rule, active = well fitted cell-killing curve with a large enough effect; inconclusive = small, poorly fitted or top-dose-only effect, or effect the other way; inactive = no such curve, though single readings can be large or run the other way.
I would appreciate it if you answered using one of these outcomes: true (1) (active), false (0) (inactive)

The following compounds have reported results that may help.
COc1cc(NS(=O)(=O)c2ccc(N)cc2)nc(OC)n1; false (0)
O=P(O)(O)C(O)(Cc1cccnc1)P(=O)(O)O; true (1)
CO[C@@]12[C@H](COC(N)=O)C3=C(C(=O)C(C)=C(N)C3=O)N1C[C@@H]1N[C@@H]12; true (1)
COC(c1ccccc1)(c1ccccc1)[C@H](Oc1nc(C)cc(C)n1)C(=O)O; false (0)
CCCCOc1ccc(CC(=O)NO)cc1; true (1)
Cc1cc(NS(=O)(=O)c2ccc(N)cc2)no1; false (0)

Prompt: What did the test return for CCOC(=O)[C@H](CCc1ccccc1)N[C@H]1CS[C@H](c2cccs2)CN(CC(=O)O)C1=O ?
Completion: true (1)

Prompt: What did the test return for CN(C)c1ccc(C(=C2C=CC(=[N+](C)C)C=C2)c2ccc(N(C)C)cc2)cc1 ?
Completion: true (1)

Prompt: What did the test return for CCOC(=O)c1ccc(C#Cc2ccc3c(c2)C(C)(C)CCS3)nc1 ?
Completion: false (0)

Prompt: What did the test return for CCCOc1ccc(C(=O)OCCN(CC)CC)cc1N ?
Completion: false (0)

Prompt: What did the test return for CCN(CC)CCn1c(=O)c(Cc2ccc(OC)cc2)nc2ccccc21 ?
Completion: false (0)
